Attribution: patent US20110130397A1

assay: Cytotoxicity (CellTiter 96 Aqueous Non-Radioactive Cell Proliferation Assay); assay type: cell-based; details: human, Huh7 cells
Parameter: CC50. Scope: all listed entries.
Form entry: value (µM) — number only.

Example entries and their recorded answers appear below.
[
  {
    "compound": "CC(=O)c1sc(N2C(=O)C(O)=C(C(=O)c3cc4ccccc4o3)C2c2ccc(-c3ccccc3)cc2)nc1C (stereo not drawn) [Compound 55]",
    "readoutNumber": 42.9
  },
  {
    "compound": "CCOC(=O)c1sc(N2C(=O)C(O)=C(C(=O)c3ccc(C)cc3)C2c2cccs2)nc1C (stereo not drawn) [Compound 28]",
    "readoutNumber": 89.1
  }
]

Which CC50 is reported for this compound? CCCCCOc1ccc(C2C(C(=O)c3cc4ccccc4o3)=C(O)C(=O)N2c2nc(C)c(C(C)=O)s2)cc1OC (stereo not drawn) [Compound 14]
74.2

Which CC50 is reported for this compound? COc1ccc(C(=O)C2=C(O)C(=O)N(c3nccs3)C2c2ccc(Cl)cc2)cc1C (stereo not drawn) [Compound 44]
51.5

Which CC50 is reported for this compound? CCOc1cc(C2C(C(=O)c3cc4ccccc4o3)=C(O)C(=O)N2c2nc3c(C)cc(C)cc3s2)ccc1O (stereo not drawn) [Compound 4]
53.4

Which CC50 is reported for this compound? Cc1ccc(C2C(C(=O)c3ccc(Cl)cc3)=C(O)C(=O)N2c2nccs2)cc1 (stereo not drawn) [Compound 59]
60.5

Which CC50 is reported for this compound? Cc1ccc2nc(N3C(=O)C(O)=C(C(=O)c4cc5ccccc5o4)C3c3cccc(O)c3)sc2c1 (stereo not drawn) [Compound 8]
80.1

Which CC50 is reported for this compound? CCOC(=O)c1sc(N2C(=O)C(O)=C(C(=O)c3ccco3)C2c2ccco2)nc1C (stereo not drawn) [Compound 45]
96.2

Which CC50 is reported for this compound? CCc1ccc2nc(N3C(=O)C(O)=C(C(=O)c4ccccc4)C3c3cccs3)sc2c1 (stereo not drawn) [Compound 118]
10.8

Which CC50 is reported for this compound? CCOC(=O)c1sc(N2C(=O)C(O)=C(C(=O)c3ccc(F)cc3)C2c2cccs2)nc1C (stereo not drawn) [Compound 40]
62.9

---

assay: Cytotoxicity (CellTiter 96 Aqueous Non-Radioactive Cell Proliferation Assay); format: cell-based; settings: human, Huh7 cells
Parameter: CC50. Scope: all listed entries.
Form entry: value (µM) — number only.

Example entries and their recorded answers appear below.
[
  {
    "compound": "COC(=O)c1sc(N2C(=O)C(O)=C(C(=O)c3ccc(F)cc3)C2c2ccc(F)cc2)nc1C (stereo not shown)",
    "measureName": "CC50",
    "uom": "µM",
    "readoutNumber": 46.5
  },
  {
    "compound": "O=C(C1=C(O)C(=O)N(c2nc3ccccc3s2)C1c1ccc(OCc2ccccc2)cc1)c1cc2ccccc2o1 (stereo not shown)",
    "measureName": "CC50",
    "uom": "µM",
    "readoutNumber": 82.3
  },
  {
    "compound": "Cc1cnc(N2C(=O)C(O)=C(C(=O)c3cc4ccccc4o3)C2c2ccc(OCc3ccccc3)cc2)s1 (stereo not shown)",
    "measureName": "CC50",
    "uom": "µM",
    "readoutNumber": 82
  }
]

Which CC50 is reported for this compound? CCc1ccc2nc(N3C(=O)C(O)=C(C(=O)c4ccco4)C3c3cccs3)sc2c1 (stereo not shown)
58.2
